Assay: chemical genetic growth profiling, strain panel (AID 1159580);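 also: tested at 20 µM; growth read once vehicle control cultures reached saturation at 30 °C; 1 = growth at the plate median or of vehicle wells; lower values mean less growth of the strain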
Conditions: S. cerevisiae deletion strains, growth OD, locus YML032C, strain rad52, hits give low values
In all, about 5,500 compounds went through this assay and about 2,000 (36%) were called active. About 18% were inconclusive and are not listed. Some of the results follow.
Classify: yes (1) when normalized growth is strictly less than 1; no (0) when normalized growth is not.

Input: Does CCOc1ccc(C(=O)c2cc(O)c(OC)c(OC)c2O)cc1 have normalized growth strictly under 1?
Output: no (0)

Input: Does CNC(Cc1c[nH]c2ccccc12)C(=O)O (stereo unspecified) have normalized growth strictly under 1?
Output: yes (1)

---

Assay: chemical genetic growth profiling, strain panel (AID 1159580);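 also: tested at 20 µM; growth read once vehicle control cultures reached saturation at 30 °C; 1 = growth at the plate median or of vehicle wells; lower values mean less growth of the strain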
Conditions: S. cerevisiae deletion strains, growth OD, locus YKL190W, strain CNB1, hits give low values
Screen size: about 5,500 compounds; about 2,000 (36%) were called active. Roughly 18% stayed inconclusive and do not appear here. Some of the results follow.
normalized growth listing for selected molecules.
Respond with the number and no other words.

Below, each entry is followed by its recorded normalized growth result.
// sample CN(C)CCc1c[nH]c2ccc(CS(=O)(=O)N3CCCC3)cc12 , its normalized growth was 1

// sample CC(=O)[O][Hg][c]1ccccc1 , its normalized growth was 0.0488

// sample Cc1ccc(=O)n(Cc2ccc(Cl)c(Cl)c2)n1 , its normalized growth was 0.988

// sample CN1C(=O)CCS(=O)(=O)C1c1ccc(Cl)cc1 (stereo not given) , its normalized growth was 1.01

// sample N#C/C(=C\N(CCS(=O)(=O)c1ccc(Cl)cc1)Cc1cccs1)S(=O)(=O)c1ccc(Cl)cc1 , its normalized growth was 0.987

Others:
// sample COC(=O)c1cc([N+](=O)[O-])ccc1N1CCOCC1 , its normalized growth was 1.01

// sample C1CCN(CCC2CCCCN2)CC1 (stereo not given) , its normalized growth was 0.998

All values here come from PubChem BioAssay AID1159580.
